tested on: HCT-15
Parameter: GI50. Scope: all listed entries.

Answered examples (2):
Cc1ccc2nc3ccccc3c(C3C4C(=O)N(c5ccc(Br)cc5Cl)C(=O)C4ON3C(C(N)=O)c3ccccc3)c2c1 (centres undefined)
5.77 µM
c1ccc(COC[C@H]2O[C@@H](c3ccccc3)C[C@@H](OCc3ccccc3)C2OCc2ccccc2)cc1 (some centres undefined)
> 10 µM

Note GI50 for the molecule shown: CC(=O)Nc1cc([As](=O)(O)O)ccc1O
> 100 µM

Give me measured GI50, please, for this molecule: O=[N+]([O-])c1cccc(-c2csc(N/N=C3\NC/C(=C/c4ccc5c(c4)OCO5)S3)n2)c1
35.7 µM
